Test system: SW 982 tumor spheroid viability
assay.summary: Anticancer human tumor SW 982 cell line growth inhibition;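 note: spheroids exposed to compound for 7 days before readout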
cond: curve of first compound; second compound 0.0949 µM; spheroids with HUVEC and MSC
For each of the molecules below, state its pIC50.
Numbers only, as −log10 of the molar value.

O=C(c1cc(Cc2n[nH]c(=O)c3ccccc23)ccc1F)N1CCN(C(=O)C2CC2)CC1 + CC[C@@]1(O)C(=O)OCc2c1cc1n(c2=O)Cc2cc3c(CN(C)C)c(O)ccc3nc2-1 :: 4.98

Input line: Look up pIC50: CNCc1ccc(-c2cc(-c3nc(-c4ccc(S(=O)(=O)C(C)C)cc4)cnc3N)on2)cc1 + CC[C@@]1(O)C(=O)OCc2c1cc1n(c2=O)Cc2cc3c(CN(C)C)c(O)ccc3nc2-1
Output line: 6.87

* * *

For each of the compounds below, state its viability, T/C.
Test system: SW 982 tumor spheroid viability
assay.summary: Anticancer human tumor SW 982 cell line growth inhibition;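 note: spheroids exposed to compound for 7 days before readout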
cond: second compound 100 µM; first compound 10 µM; stronger effect = lower value; spheroids with HUVEC and MSC
Give bare numbers, in %.

Please review the following examples before continuing.
[2H]c1nc(C)nc([2H])c1-c1cc(NC[C@@H](C)c2cccc3c(C(=O)NC)ccnc23)ncn1 + Cn1nnc2c(C(N)=O)ncn2c1=O :: 60.7
Cc1cc(C)c(CNC(=O)c2cc(-c3ccc(CN4CCOCC4)cc3)cc3c2cnn3C2CCCC2)c(=O)[nH]1 + Cn1nnc2c(C(N)=O)ncn2c1=O :: 53.8
CC(C)n1c(=O)n(C)c2cnc3cc(F)c(-c4ccc(OCCCN5CCCCC5)nc4)cc3c21 + Cn1nnc2c(C(N)=O)ncn2c1=O :: 37
CC1COCCN1c1cc(-c2ccnn2C)c2ccnc(-c3ccn[nH]3)c2n1 (stereo unspecified) + Cn1nnc2c(C(N)=O)ncn2c1=O :: 14.6
COc1ccc([C@@H](O)c2cc(-c3ncnc4cc(N5CCOCC5)ccc34)c(F)cc2Cl)nn1 + Cn1nnc2c(C(N)=O)ncn2c1=O :: 15.6

Kindly consider the entry below.
Input line: viability, T/C of COc1cc(C)[nH]c(=O)c1CN1CCc2c(Cl)cc(C(OC)C3COC3)c(Cl)c2C1=O (stereo unspecified) + Cn1nnc2c(C(N)=O)ncn2c1=O on SW 982 tumor spheroid viability?
Output line: 61.9

* * *

System: SW 982 tumor spheroid viability
assay.summary: Anticancer human tumor SW 982 cell line growth inhibition;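 note: spheroids exposed to compound for 7 days before readout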
cond: second compound 0.003 µM; first compound 0.0316 µM; stronger effect = lower value; spheroids with HUVEC and MSC
readout.name: viability, T/C (%)
Give bare numbers, in %.

Please review the following examples before continuing.
CC(C)n1c(=O)n(C)c2cnc3cc(F)c(-c4ccc(OCCCN5CCCCC5)nc4)cc3c21 + CC[C@@]1(O)C(=O)OCc2c1cc1n(c2=O)Cc2cc3c(CN(C)C)c(O)ccc3nc2-1 :: 80.2
COc1ccc([C@@H](O)c2cc(-c3ncnc4cc(N5CCOCC5)ccc34)c(F)cc2Cl)nn1 + CC[C@@]1(O)C(=O)OCc2c1cc1n(c2=O)Cc2cc3c(CN(C)C)c(O)ccc3nc2-1 :: 96.9
CC1COCCN1c1cc(-c2ccnn2C)c2ccnc(-c3ccn[nH]3)c2n1 (stereo not given) + CC[C@@]1(O)C(=O)OCc2c1cc1n(c2=O)Cc2cc3c(CN(C)C)c(O)ccc3nc2-1 :: 24.8
Cc1cc(C)c(CNC(=O)c2cc(-c3ccc(CN4CCOCC4)cc3)cc3c2cnn3C2CCCC2)c(=O)[nH]1 + CC[C@@]1(O)C(=O)OCc2c1cc1n(c2=O)Cc2cc3c(CN(C)C)c(O)ccc3nc2-1 :: 96.8

Input line: viability, T/C of CC1COCCN1c1cc(-c2ccnn2C)c2ccnc(-c3ccn[nH]3)c2n1 (stereo not given) + COc1cc2c(cc1O)CCNC21CSC2c3c(OC(C)=O)c(C)c4c(c3C(COC1=O)N1C(O)C3Cc5cc(C)c(OC)c(O)c5C(C21)N3C)OCO4 on SW 982 tumor spheroid viability?
Output line: 1.23
